Data provenance is patent US9187525B2.

Biological target: T1, natriuretic peptide receptor-B (human)
T1 chain: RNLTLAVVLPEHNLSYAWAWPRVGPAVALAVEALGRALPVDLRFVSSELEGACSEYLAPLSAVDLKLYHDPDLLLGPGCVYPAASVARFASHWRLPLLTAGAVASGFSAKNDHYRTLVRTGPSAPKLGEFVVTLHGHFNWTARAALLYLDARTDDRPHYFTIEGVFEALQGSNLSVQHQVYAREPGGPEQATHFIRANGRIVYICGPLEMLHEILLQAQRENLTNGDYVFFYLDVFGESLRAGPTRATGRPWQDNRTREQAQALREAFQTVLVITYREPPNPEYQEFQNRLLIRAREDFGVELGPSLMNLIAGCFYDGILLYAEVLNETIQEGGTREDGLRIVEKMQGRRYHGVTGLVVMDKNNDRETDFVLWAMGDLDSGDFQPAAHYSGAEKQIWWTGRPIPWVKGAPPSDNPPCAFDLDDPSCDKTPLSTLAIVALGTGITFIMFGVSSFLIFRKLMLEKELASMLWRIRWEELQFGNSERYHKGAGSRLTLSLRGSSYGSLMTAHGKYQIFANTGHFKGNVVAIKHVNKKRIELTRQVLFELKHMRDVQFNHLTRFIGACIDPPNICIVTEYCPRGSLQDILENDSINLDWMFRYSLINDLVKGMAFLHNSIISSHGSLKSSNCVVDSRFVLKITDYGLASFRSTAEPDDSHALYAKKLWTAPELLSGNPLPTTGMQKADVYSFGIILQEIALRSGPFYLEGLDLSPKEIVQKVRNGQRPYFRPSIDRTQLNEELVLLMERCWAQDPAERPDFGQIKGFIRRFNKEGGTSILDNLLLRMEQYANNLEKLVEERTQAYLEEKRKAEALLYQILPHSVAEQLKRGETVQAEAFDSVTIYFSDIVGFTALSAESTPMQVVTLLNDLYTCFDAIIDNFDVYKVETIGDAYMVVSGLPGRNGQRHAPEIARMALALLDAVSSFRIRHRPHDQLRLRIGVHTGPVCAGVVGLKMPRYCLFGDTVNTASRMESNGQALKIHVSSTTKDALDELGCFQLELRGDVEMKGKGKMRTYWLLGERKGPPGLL
Assay: cell-based or functional assay
Square brackets hold non-standard residues; d marks the D form. Ends that are not written are not given here. * marks the point of attachment. Hyp = O=C(O)[C@@H]1C[C@@H](O)CN1; NMeL = CN[C@@H](CC(C)C)C(=O)O; AR‑201‑54 = not defined here; Octanoyl = CCCCCCCC(=O)*; Sar = CNCC(=O)O
measurement name: EC50 group, cGMP in GTM-3 cells

For record [AR‑201‑54]F[dR]L[Hyp][NMeL]DRI-NH2 (reading uncertain; also: printed as (AR-201-54)-Phe-arg-Leu-Hyp-Nml-Asp-Arg-Ile-NH2) [JAL-1316] the listed EC50 group, cGMP in GTM-3 cells is ≤ 5 µM

For record Octanoyl-AFRL[Sar][NMeL]DRI-NH2 (not fully specified (some residues); printed as Occ-ala-Phe-arg-Leu-Sar-Nml-Asp-Arg-Ile-NH2) [JAL-1231] the listed EC50 group, cGMP in GTM-3 cells is ≤ 5 µM
